This collection of values is drawn from PubChem BioAssay.

# Assay Comment: yeast transport mutant growth inhibition pilot in 384-well plates, post-Golgi transport modulator project (AID 636)
# Experimental Conditions: absorbance 615 nm, about 18 h, stronger effect = higher value
Readout Kind: inhibition (%)
I only need the number, in %, no unit after it.

>  <Compound>
CCOC(=O)C1=C(C)N(C)C(=O)NC1c1cccc(O)c1 (stereo unspecified)

>  <inhibition (%)>
-0.9

$$$$

Given CCOc1ccccc1N1Cc2cc(C)c(C)cc2C1 , state its recorded inhibition.
-6.27

Name the reported inhibition value associated with the compound CCOC(=O)C1CCCN(C(=O)c2ccc(CS(=O)(=O)c3ccc(Br)cc3)o2)C1 (stereo unspecified)
-2.93

I am curious: what inhibition value has been reported for Cc1ccc(C)n1-c1ccc(-n2cnnn2)cc1 ?
-3.47

----------
# Assay Comment: S. cerevisiae growth inhibition in permissive medium (OD615), pilot counter-assay for S. cerevisiae lifespan shortening project, permissive growth control (AID 705)
# Experimental Conditions: OD615, 24 h, at 10 µM, stronger effect = higher value
Readout Kind: growth inhibition (%)
Kindly answer with a numeric value in %, unit omitted.

>  <Smiles String>
CCCC(=O)Nc1cc(C)c2c(=O)oc3ccccc3c2n1

>  <Observed Measurement>
-11.5

$$$$
>  <Smiles String>
CCOC(=O)c1cnc2c(Cl)cc(Cl)cc2c1NCCOCCO

>  <Observed Measurement>
1.23

$$$$
>  <Smiles String>
CCOc1ccc(N(CC(=O)NCc2ccco2)S(=O)(=O)c2ccc(OC)c(OC)c2)cc1

>  <Observed Measurement>
-3.81

$$$$
>  <Smiles String>
CC(C)Cc1nnc(NS(=O)(=O)c2ccc(Cl)cc2)s1

>  <Observed Measurement>
-22.6

$$$$
>  <Smiles String>
COc1ccccc1N1CCN(C(=O)c2cc(C3CC3)on2)CC1

>  <Observed Measurement>
-9.72

$$$$

Let's switch to this compound now.
Could you tell me which growth inhibition is on file for C/C=C/Cn1c(SCCCc2ccccc2)nc2c1c(=O)[nH]c(=O)n2C ?
-15.3

----------
# Assay Comment: doxorubicin toxicity protection in MRP-1 cells – H69AR cells, CellTiter-Glo, duplicate, MRP-1 activator project, pilot screen (AID 807);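 also: compound pretreatment 18-22 h then 72 h combined with doxorubicin; 0% = doxorubicin alone and 100% = vehicle without doxorubicin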
# Experimental Conditions: H69AR viability with doxorubicin, CellTiter-Glo luminescence; at 10 µM; stronger effect = higher value
Readout Kind: viability increase (%)
Only the number, expressed in %, is required.

Form field: reported viability increase of CCOc1ccc(Cn2nnc(C(=O)NCc3ccc(OC)cc3)c2N)cc1
-0.43

Return reported viability increase; argument: O=C(CC1(O)C(=O)Nc2ccccc21)c1ccc2c(c1)OCO2 (stereo unspecified)
-2.13

Which viability increase value is on record for CCOC(=O)N1CCC(N2C(=O)c3ccc(C(=O)Nc4ccc(F)cc4F)cc3C2=O)CC1 ?
-6.61

Using the record for CN(C)CCN1C(=O)C(O)=C(C(=O)c2cc3ccccc3o2)C1c1ccc(N(C)C)cc1 (stereo unspecified) , report its viability increase.
-0.2

# get_value(readout='viability increase', item= COC(=O)c1[nH]c2c(c1C)C(=O)CC(c1cc(OC)ccc1OC)C2 (stereo unspecified) )
-5.77

What does the data say about its viability increase? Entry: CCSc1oc(-c2ccco2)nc1S(=O)(=O)c1ccccc1
-2.68

Recorded viability increase for CN1CCN(c2nc3c(c(=O)[nH]c(=O)n3C)n2CCSc2nc3ccccc3s2)CC1 , please?
-2.32

Name the reported viability increase value associated with the compound CC(=O)Nc1ccc(S(=O)(=O)Nc2nc3c(s2)CCCC3)cc1
-1.41

# get_value(readout='viability increase', item= Cc1cccc(NC(=O)Nc2cccc(C#N)c2)n1 )
-4.03

Name the recorded viability increase for CCOC(=O)N1CCC(N2C(=O)c3ccccc3C2Nc2cc(Cl)c(OC)cc2OC)CC1 (stereo unspecified) .
-4.45

Fill in the blank: the reported viability increase of COc1ccccc1S(=O)(=O)Cc1ccc(C(=O)N2CCN(c3ccc(C)cc3)C(C)C2)o1 (stereo unspecified) is ____.
-6.26

Looking for the measured viability increase of c1ccc(-c2nnc(CSc3nncs3)o2)cc1 , can you help?
-0.84
